# test: Antiviral activity against human rhinovirus 7 assessed as reduction in viral infection in human HeLa H1 cells pretreated for 1 to 2 hrs with virus followed by cell addition measured after 48 hrs by Celltiter-Glo reagent based assay
# Format: functional, Human rhinovirus A7
# applied-conditions: Rhinovirus A
measured-parameter: EC50 (nM)
Report the figure in nM without appending any unit label.

Reported EC50 ( `CCOC(=O)/C=C/[C@H](C[C@@H]1CCNC1=O)NC(=O)[C@@H]1CCCN1C(=O)[C@@H](NC(=O)c1cc(C)on1)C(C)C` ) = 1300

According to the records, this compound `CCOC(=O)/C=C/[C@H](C[C@@H]1CCNC1=O)NC(=O)[C@@H]1C[C@@H](C2CCCCC2)CN1C(=O)[C@@H](NC(=O)c1cc(C)on1)C(C)C` displays EC50 of 47

Given item `CCOC(=O)/C=C/[C@H](C[C@@H]1CCNC1=O)NC(=O)[C@@H]1[C@@H](c2ccccc2)CCN1C(=O)[C@@H](NC(=O)c1cc(C)on1)C(C)C` , the value recorded as its EC50 is 8300

The recorded EC50 for CCOC(=O)/C=C/[C@H](C[C@@H]1CCNC1=O)NC(=O)[C@@H]1[C@@H](c2ccccc2)CN1C(=O)[C@@H](NC(=O)c1cc(C)on1)C(C)C (stereo in doubt; 10) is 420

Short answer for `CCOC(=O)/C=C/[C@H](C[C@@H]1CCNC1=O)NC(=O)[C@@H]1C[C@@H](c2ccccc2)CN1C(=O)[C@@H](NC(=O)c1cc(C)on1)C(C)C` : EC50 was 81

---

# System: rhinovirus A41
# test: Antiviral activity against human rhinovirus 41 assessed as reduction in viral infection in human HeLa H1 cells pretreated for 1 to 2 hrs with virus followed by cell addition measured after 48 hrs by Celltiter-Glo reagent based assay
# Type: functional, organism-based
# applied-conditions: Rhinovirus A
pEC50: −log10 of the molar value.
# if value of pEC50 reaches 6, tag 1; if it stays below, tag 0

Prompt: Quick check, pEC50 >= 6? `CCOC(=O)/C=C/[C@H](C[C@@H]1CCNC1=O)NC(=O)[C@@H]1[C@@H](c2ccccc2)CCN1C(=O)[C@@H](NC(=O)c1cc(C)on1)C(C)C`
Response: 0

Prompt: Assess whether reported pEC50 for `CCOC(=O)/C=C/[C@H](C[C@@H]1CCNC1=O)NC(=O)[C@@H]1C[C@@H](c2ccccc2)CN1C(=O)[C@@H](NC(=O)c1cc(C)on1)C(C)C` sits at 6 or higher.
Response: 1

Prompt: Check the entry CCOC(=O)/C=C/[C@H](C[C@@H]1CCNC1=O)NC(=O)[C@@H]1[C@@H](c2ccccc2)CN1C(=O)[C@@H](NC(=O)c1cc(C)on1)C(C)C (stereo in doubt; 10) : does pEC50 equal or exceed 6?
Response: 1

Prompt: Check the entry `CCOC(=O)/C=C/[C@H](C[C@@H]1CCNC1=O)NC(=O)[C@@H]1C[C@@H](C2CCCCC2)CN1C(=O)[C@@H](NC(=O)c1cc(C)on1)C(C)C` : does pEC50 equal or exceed 6?
Response: 1

---

# Tested on: rhinovirus A85
# test: Antiviral activity against human rhinovirus 85 assessed as reduction in viral infection in human HeLa H1 cells pretreated for 1 to 2 hrs with virus followed by cell addition measured after 48 hrs by Celltiter-Glo reagent based assay
# Type: functional, organism-based
# applied-conditions: Rhinovirus A
For each entry below, report its pEC50 value.
Entry type: numeric. Quantity: pEC50, the -log10 of concentration in molar units.

Query `CCOC(=O)/C=C/[C@H](C[C@@H]1CCNC1=O)NC(=O)[C@@H]1CCCN1C(=O)[C@@H](NC(=O)c1cc(C)on1)C(C)C` yields pEC50 of 5.38

Value of pEC50 reported for the compound `CCOC(=O)/C=C/[C@H](C[C@@H]1CCNC1=O)NC(=O)[C@@H]1[C@@H](c2ccccc2)CCN1C(=O)[C@@H](NC(=O)c1cc(C)on1)C(C)C` is 5.03

// recorded pEC50 for CCOC(=O)/C=C/[C@H](C[C@@H]1CCNC1=O)NC(=O)[C@@H]1[C@@H](c2ccccc2)CN1C(=O)[C@@H](NC(=O)c1cc(C)on1)C(C)C (stereo in doubt; 10) : 5.94

The recorded pEC50 for entry `CCOC(=O)/C=C/[C@H](C[C@@H]1CCNC1=O)NC(=O)[C@@H]1C[C@@H](c2ccccc2)CN1C(=O)[C@@H](NC(=O)c1cc(C)on1)C(C)C` equals 6.60

Reported pEC50 of `CCOC(=O)/C=C/[C@H](C[C@@H]1CCNC1=O)NC(=O)[C@@H]1C[C@@H](C2CCCCC2)CN1C(=O)[C@@H](NC(=O)c1cc(C)on1)C(C)C` : 7.03

---

# System: rhinovirus A2
# test: Antiviral activity against human rhinovirus 2 assessed as reduction in viral infection in human HeLa H1 cells pretreated for 1 to 2 hrs with virus followed by cell addition measured after 48 hrs by Celltiter-Glo reagent based assay
# Type: functional, organism-based
# applied-conditions: Rhinovirus A, HeLa H1
measured-parameter: pEC50
Scale: negative log10 of molar concentration, which is what pEC50 denotes.

Summary for this compound, `CCOC(=O)/C=C/[C@H](C[C@@H]1CCNC1=O)NC(=O)[C@@H]1C[C@@H](c2ccccc2)CN1C(=O)[C@@H](NC(=O)c1cc(C)on1)C(C)C` : pEC50 is 6.85

For `CCOC(=O)/C=C/[C@H](C[C@@H]1CCNC1=O)NC(=O)[C@@H]1C[C@@H](Oc2ccccc2)CN1C(=O)[C@@H](NC(=O)c1cc(C)on1)C(C)C` the compound record lists pEC50 as 6.57

Record `CCOC(=O)/C=C/[C@H](C[C@@H]1CCNC1=O)NC(=O)[C@@H]1[C@@H](c2ccccc2)CCN1C(=O)[C@@H](NC(=O)c1cc(C)on1)C(C)C` , field pEC50: 5.08

pEC50 reading for `CCOC(=O)/C=C/[C@H](C[C@@H]1CCNC1=O)NC(=O)[C@@H]1C[C@@H](Cc2ccccc2)CN1C(=O)[C@@H](NC(=O)c1cc(C)on1)C(C)C` : 6.52

Lookup result for `CCOC(=O)/C=C/[C@H](C[C@@H]1CCNC1=O)NC(=O)[C@@H]1C[C@@H](C2CCCCC2)CN1C(=O)[C@@H](NC(=O)c1cc(C)on1)C(C)C` ; measured pEC50: 7.34

Short answer for `CCOC(=O)/C=C/[C@H](C[C@@H]1CCNC1=O)NC(=O)[C@@H]1CC[C@@H](c2ccccc2)N1C(=O)[C@@H](NC(=O)c1cc(C)on1)C(C)C` : pEC50 was 5.72

// recorded pEC50 for `CCOC(=O)/C=C/[C@H](C[C@@H]1CCNC1=O)NC(=O)[C@@H]1CCCN1C(=O)[C@@H](NC(=O)c1cc(C)on1)C(C)C` : 5.86

Lab book: pEC50 of `CCOC(=O)/C=C/[C@H](C[C@@H]1CCNC1=O)NC(=O)[C@@H]1C[C@@H](CC#N)CN1C(=O)[C@@H](NC(=O)c1cc(C)on1)C(C)C` noted as 6.37

---

# Test system: rhinovirus A25
# test: Antiviral activity against human rhinovirus 25 assessed as reduction in viral infection in human HeLa H1 cells pretreated for 1 to 2 hrs with virus followed by cell addition measured after 48 hrs by Celltiter-Glo reagent based assay
# Assay type: functional, organism-based
# applied-conditions: Rhinovirus A
measured-parameter: EC50 (nM)
Write the value in nM as a bare number.

Briefly, EC50 measured for CCOC(=O)/C=C/[C@H](C[C@@H]1CCNC1=O)NC(=O)[C@@H]1[C@@H](c2ccccc2)CN1C(=O)[C@@H](NC(=O)c1cc(C)on1)C(C)C (stereo in doubt; 10) : 100

// EC50 value for `CCOC(=O)/C=C/[C@H](C[C@@H]1CCNC1=O)NC(=O)[C@@H]1C[C@@H](c2ccccc2)CN1C(=O)[C@@H](NC(=O)c1cc(C)on1)C(C)C` : 19

// field: EC50; key: `CCOC(=O)/C=C/[C@H](C[C@@H]1CCNC1=O)NC(=O)[C@@H]1CCCN1C(=O)[C@@H](NC(=O)c1cc(C)on1)C(C)C` ; value = 1890

Reported EC50 for `CCOC(=O)/C=C/[C@H](C[C@@H]1CCNC1=O)NC(=O)[C@@H]1C[C@@H](C2CCCCC2)CN1C(=O)[C@@H](NC(=O)c1cc(C)on1)C(C)C` was 9

// EC50 lookup, molecule = `CCOC(=O)/C=C/[C@H](C[C@@H]1CCNC1=O)NC(=O)[C@@H]1[C@@H](c2ccccc2)CCN1C(=O)[C@@H](NC(=O)c1cc(C)on1)C(C)C` , result: 4500

---

# test: Antiviral activity against human rhinovirus 8 assessed as reduction in viral infection in human HeLa H1 cells pretreated for 1 to 2 hrs with virus followed by cell addition measured after 48 hrs by Celltiter-Glo reagent based assay
# Format: functional, Human rhinovirus A8
# applied-conditions: Rhinovirus A
pEC50: −log10 of the molar value.
Label YES for high-side pEC50 (at or above 7) and NO for low-side pEC50 (below it).

Prompt: Item CCOC(=O)/C=C/[C@H](C[C@@H]1CCNC1=O)NC(=O)[C@@H]1[C@@H](c2ccccc2)CN1C(=O)[C@@H](NC(=O)c1cc(C)on1)C(C)C (stereo in doubt; 10) with pEC50 of 7 or above?
Response: NO

Prompt: Could you please find out whether `CCOC(=O)/C=C/[C@H](C[C@@H]1CCNC1=O)NC(=O)[C@@H]1CCCN1C(=O)[C@@H](NC(=O)c1cc(C)on1)C(C)C` has pEC50 that meets 7 or exceeds it?
Response: NO

Prompt: Please check the record `CCOC(=O)/C=C/[C@H](C[C@@H]1CCNC1=O)NC(=O)[C@@H]1C[C@@H](C2CCCCC2)CN1C(=O)[C@@H](NC(=O)c1cc(C)on1)C(C)C` and state if its pEC50 is at or above 7.
Response: YES

Prompt: # check: pEC50 of `CCOC(=O)/C=C/[C@H](C[C@@H]1CCNC1=O)NC(=O)[C@@H]1C[C@@H](c2ccccc2)CN1C(=O)[C@@H](NC(=O)c1cc(C)on1)C(C)C` is greater than or equal to 7
Response: YES

Prompt: Check the entry `CCOC(=O)/C=C/[C@H](C[C@@H]1CCNC1=O)NC(=O)[C@@H]1[C@@H](c2ccccc2)CCN1C(=O)[C@@H](NC(=O)c1cc(C)on1)C(C)C` : does pEC50 equal or exceed 7?
Response: NO
